meta.source: ChEMBL document CHEMBL4033628

- System: T47D
- method_notes: Potency index, ratio of camptothecin IC50 to compound IC50 for human T47D cells
- Assay type: functional
outcome_measure: Ratio IC50
One number for each entry.

Worked cases, Ratio IC50 given:
| input_smiles | target_system | Ratio IC50 |
| --- | --- | --- |
| Oc1cccc(-c2cc(-c3ccc(Cl)cc3)cc(-c3ccccc3O)n2)c1 | T47D | 2.08 |
| Oc1cccc(-c2cc(-c3ccccc3Cl)cc(-c3cccc(O)c3)n2)c1 | T47D | 30 |
| Oc1cccc(-c2cc(-c3ccccc3Cl)cc(-c3ccccc3O)n2)c1 | T47D | 1.3 |
| Oc1ccc(-c2cc(-c3ccc(Cl)cc3)cc(-c3cccc(O)c3)n2)cc1 | T47D | 2.5 |
| Oc1ccc(-c2cc(-c3ccccc3Cl)cc(-c3ccccc3O)n2)cc1 | T47D | 0.19 |
| Oc1cccc(-c2cc(-c3ccc(Cl)cc3)cc(-c3cccc(O)c3)n2)c1 | T47D | 14 |
| Oc1cccc(-c2cc(-c3ccccc3)cc(-c3cccc(O)c3)n2)c1 | T47D | 0.31 |

Enter Ratio IC50 (test system T47D) for Oc1ccc(-c2cc(-c3ccccc3)cc(-c3cccc(O)c3)n2)cc1
0.78
